Provenance of the data: the FLAb antibody collection (doi:10.7554/elife.23156)

B1: scFv; the commonest letter at each place (parent)
chain 1: EVKLDETGGGLVQPGRPMKLSCVASGFTFSDYWMNWVRQSPEKGLEWVAQIRNKPYNYETYYSDSVKGRFTISRDDSKSSVYLQMNNLRVEDMGIYYCTGSYYGMDYWGQGTSVTVS
chain 2: DVVMTQTPLSLPVSLGDQASISCRSSQSLVHSNGNTYLRWYLQKPGQSPKVLIYKVSNRFSGVPDRFSGSGSGTDFTLKISRVEAEDLGVYFCSQSTHVPWTFGGGTKLEIK

Variants of: B1
procedureText: yeast surface expression (ratio to wild type); higher = more expressed
setupConditions: format: scFv 4-4-20, heavy + light
assayReadout: yeast surface expression
// print number alone

Consider the worked cases shown below.
[
  {
    "mutations": "chain 1 M105E D106Y",
    "yeast surface expression": 0.534
  },
  {
    "mutations": "chain 1 G100W S101L",
    "yeast surface expression": 0.293
  },
  {
    "mutations": "chain 1 T28N D31I Y32R",
    "yeast surface expression": 0.627
  },
  {
    "mutations": "chain 1 M105T Y107R",
    "yeast surface expression": 0.527
  },
  {
    "mutations": "chain 1 F29D",
    "yeast surface expression": 1.07
  }
]

# return recorded yeast surface expression for entry chain 1 S101P W108T
0.168

Give the value of yeast surface expression reported for the following: chain 1 N35T V37P
0.726

Give recorded yeast surface expression. chain 1 F29Y Y32R
0.761

Read off the recorded yeast surface expression for chain 1 G100E S101V
0.225

Entry chain 1 G104S Y107T needs its yeast surface expression filled in; supply it.
0.831

# return recorded yeast surface expression for entry chain 1 Y32W
0.805

Fill in reported yeast surface expression for this entry: chain 1 D106R Y107D
0.462

Find the measured yeast surface expression of chain 1 G100M G104P D106I and report it.
0.361

Report yeast surface expression for chain 1 S30F Y32Q
0.653
